Below, each entry is listed with its recorded pEC50.
- SYSTEM_NAME: human TLR7 (Homo sapiens (Human))
- Sequence (Q9NYK1 27-1049): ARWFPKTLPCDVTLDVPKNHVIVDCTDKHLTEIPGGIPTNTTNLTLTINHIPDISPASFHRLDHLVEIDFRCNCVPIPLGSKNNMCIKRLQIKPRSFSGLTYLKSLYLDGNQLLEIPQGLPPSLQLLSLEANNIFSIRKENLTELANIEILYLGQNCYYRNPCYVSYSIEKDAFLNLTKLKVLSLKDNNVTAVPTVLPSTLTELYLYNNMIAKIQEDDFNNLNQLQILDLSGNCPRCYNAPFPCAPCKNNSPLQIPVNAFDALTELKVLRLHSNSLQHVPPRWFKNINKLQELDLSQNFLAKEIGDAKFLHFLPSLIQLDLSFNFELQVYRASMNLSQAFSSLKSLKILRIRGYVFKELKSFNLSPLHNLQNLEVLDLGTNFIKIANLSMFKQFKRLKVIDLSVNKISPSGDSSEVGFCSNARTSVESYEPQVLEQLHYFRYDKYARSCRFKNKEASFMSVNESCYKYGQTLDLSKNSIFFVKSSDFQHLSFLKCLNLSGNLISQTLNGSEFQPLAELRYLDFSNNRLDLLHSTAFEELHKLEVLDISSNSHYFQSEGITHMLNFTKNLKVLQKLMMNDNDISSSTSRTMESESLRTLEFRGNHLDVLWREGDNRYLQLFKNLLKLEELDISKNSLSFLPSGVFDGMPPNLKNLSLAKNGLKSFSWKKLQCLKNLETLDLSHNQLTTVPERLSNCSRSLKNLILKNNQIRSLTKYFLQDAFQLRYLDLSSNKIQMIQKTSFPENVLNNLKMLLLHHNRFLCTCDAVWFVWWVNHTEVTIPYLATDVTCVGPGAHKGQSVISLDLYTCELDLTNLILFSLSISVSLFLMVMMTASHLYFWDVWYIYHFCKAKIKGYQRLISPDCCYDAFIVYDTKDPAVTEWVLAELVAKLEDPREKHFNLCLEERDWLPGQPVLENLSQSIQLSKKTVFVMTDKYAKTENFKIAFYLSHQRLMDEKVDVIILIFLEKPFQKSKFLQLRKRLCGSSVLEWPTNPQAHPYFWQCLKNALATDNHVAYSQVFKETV
- TEST_SUMMARY: Agonistic activity on human TLR7 in HEK-Blue hTLR7 stably transfected cells
- Type: cell-based
- RECORDED_CONDITIONS: OD 620 nm
- Experimental: The activation effect of the compounds of the present invention on the hTLR7 protein expressed by the HEK-Blue™ hTLR7 stably transfected cells was determined by the following experimental method: […] The above formulated compound was firstly diluted 20-fold with the medium, then 20 μl of the diluted compound were added to each well. […] The cells were placed in an incubator for 1-2 minutes, gently pipetted, and counted by trypan blue staining. […]
pEC50: −log10 of the molar value.
VALUE_TYPE: pEC50

compound="COCCOc1nc(N)c2cnn(Cc3ccc(CN4CCCC4)cc3)c2n1 [Example 7]" system_name="human TLR7 (Homo sapiens (Human))" value_type=pEC50 result_value=6.74
compound="CCCNC(=O)c1nc(N)c2cnn(Cc3ccc(CN4CCCC4)cc3)c2n1 [Example 11]" system_name="human TLR7 (Homo sapiens (Human))" value_type=pEC50 result_value=6.47
compound="COCC(C)Oc1nc(N)c2cnn(Cc3ccc(CN4CCCC4)cc3)c2n1 (stereo not shown) [Example 8]" system_name="human TLR7 (Homo sapiens (Human))" value_type=pEC50 result_value=6.66
compound="CCCCOc1nc(N)c2cnn(Cc3cccc(CN4CCCC4)c3)c2n1 [Example 4]" system_name="human TLR7 (Homo sapiens (Human))" value_type=pEC50 result_value=6.78
compound="CCCCNc1nc(N)c2cnn(Cc3ccc(CN4CCCC4)cc3)c2n1 [Example 10]" system_name="human TLR7 (Homo sapiens (Human))" value_type=pEC50 result_value=6.46
compound="CCCCOc1nc(N)c2cnn(Cc3cccc(CN4CCCCC4)c3)c2n1 [Example 6]" system_name="human TLR7 (Homo sapiens (Human))" value_type=pEC50 result_value=6.63
compound="CCCCOc1nc(N)c2cnn(Cc3ccc(CN4CCC4)cc3)c2n1 [Example 2]" system_name="human TLR7 (Homo sapiens (Human))" value_type=pEC50 result_value=7.19
compound="CCCCOc1nc(N)c2cnn(Cc3ccc(CN4CCCC4)c(F)c3)c2n1 [Example 9]" system_name="human TLR7 (Homo sapiens (Human))" value_type=pEC50 result_value=6.89
compound="CCCCC(=O)c1nc(N)c2cnn(Cc3ccc(CN4CCCC4)cc3)c2n1 [Example 12]" system_name="human TLR7 (Homo sapiens (Human))" value_type=pEC50 result_value=6.41
compound="CCCCOc1nc(N)c2cnn(Cc3ccc(CN4CCCCC4)cc3)c2n1 [Example 3]" system_name="human TLR7 (Homo sapiens (Human))" value_type=pEC50 result_value=7.11
